# System under test: SARS-CoV-2 M^pro (Severe acute respiratory syndrome coronavirus 2)
# Assay type: binding
# Assay setup: shift vs DMSO; 30 μM compound
Non-standard residues stand in square brackets, D forms with d. Residues, ends and D or L forms follow the SMILES beside them. *: point of attachment. Nva = CCC[C@H](N)C(=O)O; Cbz = O=C(OCc1ccccc1)*
Assign 1 (yes) whenever 2019-nCoV 3CL TSA ΔTm does not fall below -0.3 °C; assign 0 (no) whenever it does.

[[record]]
compound = "CC(C)[C@H](NC(=O)OCc1ccccc1)C(=O)N[C@H](C=O)Cc1ccccc1 [calpain inhibitor III (MDL28170) (57), calpain inhibitor III] (Cbz-Val-Phe-aldehyde)"
assigned_class = "0 (no)"

[[record]]
compound = "CC(C)C[C@@H](C=O)NC(=O)[C@@H](NS(=O)(=O)c1ccc(F)cc1)C(C)C"
assigned_class = "1 (yes)"

[[record]]
compound = "CSCC[C@@H](C=O)NC(=O)[C@H](CC(C)C)NC(=O)[C@H](CC(C)C)NC(C)=O [Calpain inhibitor II (61), Calpain inhibitor II] (Ac-Leu-Leu-Met-aldehyde)"
assigned_class = "1 (yes)"

[[record]]
compound = "CCC[C@@H](C=O)NC(=O)[C@H](CC(C)C)NC(=O)[C@H](CC(C)C)NC(=O)OCc1ccccc1 [MG-115 (60), MG-115] (Cbz-Leu-Leu-[Nva]-aldehyde)"
assigned_class = "1 (yes)"

[[record]]
compound = "CCCC[C@@H](C=O)NC(=O)[C@H](CC(C)C)NC(=O)OCc1ccccc1"
assigned_class = "1 (yes)"

